Molecular target: T1, mouse tissue factor pathway inhibitor (TFPI) (mouse, UniProt O54819 29-289, limits assumed)
T1 construct: bought; also called mTFPI; murine TFPI
T1 sequence (looked up): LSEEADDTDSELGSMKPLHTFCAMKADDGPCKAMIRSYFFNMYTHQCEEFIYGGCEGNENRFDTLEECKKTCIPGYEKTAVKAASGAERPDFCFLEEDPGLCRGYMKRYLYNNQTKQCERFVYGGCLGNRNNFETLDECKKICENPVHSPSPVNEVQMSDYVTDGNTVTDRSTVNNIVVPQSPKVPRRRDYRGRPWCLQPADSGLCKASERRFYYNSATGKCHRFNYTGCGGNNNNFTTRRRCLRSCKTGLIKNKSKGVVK
Experiment: competitive ELISA

{"binder": "2A8 HC S35D+S55R+K99L/LC N29K+Y48F+N51V+D91W (Fab, V domains shown) VH: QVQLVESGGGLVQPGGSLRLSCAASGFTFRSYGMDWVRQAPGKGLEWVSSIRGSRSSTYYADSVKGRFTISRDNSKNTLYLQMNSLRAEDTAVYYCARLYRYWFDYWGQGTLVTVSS VL: DIELTQPPSVSVAPGQTARISCSGDNLRKYYAHWYQQKPGQAPVVVIFYDVNRPSGIPERFSGSNSGNTATLTISGTQAEDEADYYCQSWWDGVPVFGGGTKLTVLG", "variant/HC_K99L / ratio": 18.9}
{"binder": "2A8 HC S31V+S35D/LC Y48F+N51V (Fab, V domains shown) VH: QVQLVESGGGLVQPGGSLRLSCAASGFTFRVYGMDWVRQAPGKGLEWVSSIRGSSSSTYYADSVKGRFTISRDNSKNTLYLQMNSLRAEDTAVYYCARKYRYWFDYWGQGTLVTVSS VL: DIELTQPPSVSVAPGQTARISCSGDNLRNYYAHWYQQKPGQAPVVVIFYDVNRPSGIPERFSGSNSGNTATLTISGTQAEDEADYYCQSWDDGVPVFGGGTKLTVLG", "variant/HC_K99L / ratio": 7.2}
{"binder": "2A8 HC S35D+K99L/LC D91L+V96W (Fab, V domains shown) VH: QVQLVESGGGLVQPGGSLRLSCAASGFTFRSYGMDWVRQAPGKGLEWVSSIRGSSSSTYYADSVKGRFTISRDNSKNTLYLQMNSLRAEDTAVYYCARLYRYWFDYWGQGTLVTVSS VL: DIELTQPPSVSVAPGQTARISCSGDNLRNYYAHWYQQKPGQAPVVVIYYDNNRPSGIPERFSGSNSGNTATLTISGTQAEDEADYYCQSWLDGVPWFGGGTKLTVLG", "variant/HC_K99L / ratio": 5.4}
